# Target desc: T1, Amylin 3(a) receptor (human calcitonin receptor (CTa) with RAMP-3) (human, UniProt P30988 25-474; O60896 24-148, limits assumed)
# T1 sequence (looked up) 1: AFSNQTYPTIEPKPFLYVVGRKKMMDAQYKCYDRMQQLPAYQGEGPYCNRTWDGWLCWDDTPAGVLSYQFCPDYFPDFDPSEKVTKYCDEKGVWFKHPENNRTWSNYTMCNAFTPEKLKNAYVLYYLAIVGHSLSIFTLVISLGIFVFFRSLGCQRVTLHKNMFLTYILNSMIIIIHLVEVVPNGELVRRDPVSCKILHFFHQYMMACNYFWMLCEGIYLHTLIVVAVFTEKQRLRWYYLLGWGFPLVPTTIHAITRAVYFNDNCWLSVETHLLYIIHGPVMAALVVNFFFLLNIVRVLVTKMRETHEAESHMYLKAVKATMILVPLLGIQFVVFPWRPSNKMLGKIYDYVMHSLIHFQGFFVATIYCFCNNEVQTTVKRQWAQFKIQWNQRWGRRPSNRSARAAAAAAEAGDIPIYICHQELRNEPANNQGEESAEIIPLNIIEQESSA
# T1 sequence (looked up) 2: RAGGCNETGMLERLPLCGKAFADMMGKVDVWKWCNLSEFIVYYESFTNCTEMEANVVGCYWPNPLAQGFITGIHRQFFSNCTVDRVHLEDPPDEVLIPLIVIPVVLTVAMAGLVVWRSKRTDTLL
# Assay text: cell-based or functional assay
Bridges are numbered along the chain shown (N, C = ends). Where no end group is shown, it is not given here.
Parameter: Potency Luciferase (nM)
# number only, unit nM dropped from output

I would be grateful if you could share the reported Potency Luciferase for HRKCNTATCATQRLANFLHHSSNNFGPILPPTNVGSNTY-NH2 (disulfide 4-9; not fully specified (N-terminus); printed as N-alpha-[(S)-4-Carboxy-4-(19-carboxynonadecanoylamino)butyryl]-His-Arg-[His17]-pramlintide) [N-alpha-[(S)-4-Carboxy-4-(19-carboxynonadecanoylamino)butyryl]-His-Arg-[His17]-pramlintide] .
0.1

Consider the additional binder presented here.
Given CNTATCATQRLANFLHHSSNNFGPILPPTNVGSNTY-NH2 (disulfide 1-6; not fully specified (N-terminus); printed as N-alpha-[2-(2-{2-[2-(2-{2-[(S)-4-Carboxy-4-(19-carboxyheptadecanoylamino)butyrylamino]ethoxy}ethoxy)acetylamino]ethoxy}ethoxy)acetyl]-[His17]-pramlintide (2-37)) , state its recorded Potency Luciferase.
0.07
